# protocol: Permeability of compound at pH 7.4 measured after 6 hrs by PAMPA assay
reported.property: Papp at 6 h (×10⁻⁶ cm/s)

compound | value.observed
C#CCN(C)C1=CC(=O)c2ccccc2C1=O | 18.5
CNC(=C[N+](=O)[O-])NCCSCc1ccc(CN(C)C)o1 [RANITIDINE] | 0.04
C#CCNC1=CC(=O)c2ccccc2C1=O | 20.8
C#CCNC1=CC(=O)c2c(O)ccc(O)c2C1=O | 43.3
C#CCNC1=CC(=O)c2cccc(OCc3ccccc3)c2C1=O | 25.5
C#CCN(C)C1=C(Cl)C(=O)c2ccccc2C1=O | 14

====

Target chain: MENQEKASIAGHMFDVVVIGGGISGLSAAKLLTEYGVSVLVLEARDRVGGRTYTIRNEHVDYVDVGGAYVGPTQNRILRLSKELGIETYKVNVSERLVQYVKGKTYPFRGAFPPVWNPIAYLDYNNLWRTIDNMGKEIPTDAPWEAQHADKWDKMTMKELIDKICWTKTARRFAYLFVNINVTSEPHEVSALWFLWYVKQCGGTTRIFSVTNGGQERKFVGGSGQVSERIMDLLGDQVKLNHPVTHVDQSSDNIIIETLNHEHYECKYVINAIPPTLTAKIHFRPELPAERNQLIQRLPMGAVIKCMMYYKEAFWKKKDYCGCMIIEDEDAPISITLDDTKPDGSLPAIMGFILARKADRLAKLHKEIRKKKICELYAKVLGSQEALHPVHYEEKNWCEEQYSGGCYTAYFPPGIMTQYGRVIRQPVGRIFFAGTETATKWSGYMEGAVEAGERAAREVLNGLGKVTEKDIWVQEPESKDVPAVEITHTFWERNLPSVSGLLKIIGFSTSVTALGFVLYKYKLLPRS
Form field: IC50 (one value per entry).

chemical.structure | IC50 (µM)
C#CCN(C)C1=C(Cl)C(=O)c2ccccc2C1=O | 10
C#CCN(C)C1=CC(=O)c2ccccc2C1=O | 6.64

====

# protocol: Toxicity in human SH-SY5Y cells assessed by intracellular dehydrogenase activity at 100 uM measured after 24 hrs by WST-1 assay
# Format: cell-based
# condition.notes: read-out: Activity

chemical.structure | viability at 24 h, 100 µM [%]
C#CCNC1=CC(=O)c2cccc(OCc3ccccc3)c2C1=O | 88

====

# system: Amyloid-beta precursor protein (Homo sapiens) (UniProt P05067)
# Sequence (P05067 whole entry): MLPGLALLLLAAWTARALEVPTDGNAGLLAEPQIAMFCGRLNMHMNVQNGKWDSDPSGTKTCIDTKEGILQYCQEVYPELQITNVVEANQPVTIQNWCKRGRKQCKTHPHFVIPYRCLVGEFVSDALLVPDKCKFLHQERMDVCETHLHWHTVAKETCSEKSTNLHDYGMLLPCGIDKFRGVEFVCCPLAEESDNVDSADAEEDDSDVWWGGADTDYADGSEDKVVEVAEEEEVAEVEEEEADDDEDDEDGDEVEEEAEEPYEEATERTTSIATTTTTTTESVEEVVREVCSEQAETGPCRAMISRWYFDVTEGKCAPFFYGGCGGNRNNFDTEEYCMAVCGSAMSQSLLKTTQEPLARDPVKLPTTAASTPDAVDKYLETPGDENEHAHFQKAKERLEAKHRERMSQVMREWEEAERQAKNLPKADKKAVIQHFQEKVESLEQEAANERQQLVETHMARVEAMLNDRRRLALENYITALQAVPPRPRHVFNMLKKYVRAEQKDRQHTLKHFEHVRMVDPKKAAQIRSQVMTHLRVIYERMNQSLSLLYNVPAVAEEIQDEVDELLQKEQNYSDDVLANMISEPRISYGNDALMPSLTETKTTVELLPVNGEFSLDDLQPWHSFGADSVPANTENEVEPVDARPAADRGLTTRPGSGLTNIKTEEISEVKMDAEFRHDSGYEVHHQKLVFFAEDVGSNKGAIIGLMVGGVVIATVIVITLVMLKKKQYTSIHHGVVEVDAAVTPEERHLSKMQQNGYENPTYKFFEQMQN
# protocol: Inhibition of HFIP-pretreated amyloid beta (1 to 42) (unknown origin) self aggregation at 50 uM measured every 10 mins for 72 hrs by Thioflavin T flourimetric assay relative to control
reported.property: inhibition (%)

chemical.structure | reported.property | value.observed
C#CCNC1=CC(=O)c2cccc(OCC)c2C1=O | inhibition | 11.2
C#CCNC1=CC(=O)c2cccc(OCc3ccccc3)c2C1=O | inhibition | 17.5
C#CCNC1=CC(=O)c2cccc(OC)c2C1=O | inhibition | 15.5
C#CCNC1=CC(=O)c2ccccc2C1=O | inhibition | 24
C#CCNC1=CC(=O)c2c(O)ccc(O)c2C1=O | inhibition | 21.7
C[C@H]1c2cccc(O)c2C(=O)C2=C(O)[C@]3(O)C(=O)C(C(N)=O)=C(O)[C@@H](N(C)C)[C@@H]3[C@@H](O)[C@@H]21 | inhibition | 93.1
C#CCNC1=C(Cl)C(=O)c2ccccc2C1=O | inhibition | 18.4
C#CCN(C)C1=CC(=O)c2ccccc2C1=O | inhibition | 67.4
C#CCN(C)C1=C(Cl)C(=O)c2ccccc2C1=O | inhibition | 40.5

Attribution: ChEMBL document CHEMBL4819016
